Origin of values: PubChem BioAssay

Documented composite z-score across a set of molecules
- MEASUREMENT_DESCRIPTION: anti-His antibody binders, primary screen, artefact control for SMM control protein annotation, biochemical, small-molecule microarray, 635 nm fluorescence (AID 1128);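 further: score merges feature fluorescence with signal-to-noise for each printed compound spot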
- RECORDED_CONDITIONS: anti-His Alexa647 antibody binding, higher = more signal
Just the number, please.

C=C(CCCC)C(=O)CC[C@H](OC(C)=O)c1ccccc1OCCO | 0.0808
CN(C)CCCC[C@@H]1NC(=O)[C@H]2C[C@@H](C(=O)O)[C@@H](c3cccc(OCCO)c3)N2C1=O | 3.17
COCCCNC(=O)[C@@H]1c2ccccc2C(=O)N(Cc2cc(C(F)(F)F)cc(C(F)(F)F)c2)[C@H]1c1ccc(CO)cc1 | 0.358
C=CC[C@]1(C(=O)NCCCOC)N=C(c2ccc(OCCCO)cc2)O[C@H]1c1ccccc1 | 1.19
N#Cc1ccc(C(O)C2C=CC3C(=O)NC(=O)C3N2Nc2ccccn2)cc1 (stereo unspecified) | 0.782

Query CCCC[C@H]1OB(O)C[C@H]2C1=C(COC)C[C@H]1C(=O)C=CC(=O)[C@H]12 yields composite z-score of 0.51

COC(=O)c1ccc([C@H](NC(=O)c2ccccc2)[C@]2(C)C[C@H]2C2CCCCC2)cc1 has a reported composite z-score of 0.494

CC(C)C[C@@H]1NC(=O)[C@H]2C[C@@H](C(=O)NCCCCCNC(=O)CS)[C@@H](c3ccc(O)cc3)N2C1=O has a reported composite z-score of 2.05

composite z-score recorded for this molecule, NC(=O)NCC#Cc1ccc2c(c1)[C@]1(C(=O)N2)[C@H](C(=O)Nc2nc3ccccc3s2)[C@H]2C(=O)O[C@H](c3ccccc3)[C@H](c3ccccc3)N2[C@@H]1c1ccc(OCCO)cc1 , is -0.497

get_value(item= [N-]=[N+]=NCc1ccccc1C[C@]1(C(=O)O)COC(c2ccc(OCCCO)cc2)=N1 , readout=composite z-score) returns -0.615

So, COc1ccccc1CN1C(=O)c2ccccc2[C@@H](C(=O)NCCCN(C)C)[C@@H]1c1ccc(CO)cc1 ? Its composite z-score was 0.802
